Origin of the recorded values: ChEMBL document CHEMBL5331125

TESTED SYSTEM: 5-hydroxytryptamine receptor 2A (Homo sapiens, UniProt P28223)
Sequence (P28223 whole entry): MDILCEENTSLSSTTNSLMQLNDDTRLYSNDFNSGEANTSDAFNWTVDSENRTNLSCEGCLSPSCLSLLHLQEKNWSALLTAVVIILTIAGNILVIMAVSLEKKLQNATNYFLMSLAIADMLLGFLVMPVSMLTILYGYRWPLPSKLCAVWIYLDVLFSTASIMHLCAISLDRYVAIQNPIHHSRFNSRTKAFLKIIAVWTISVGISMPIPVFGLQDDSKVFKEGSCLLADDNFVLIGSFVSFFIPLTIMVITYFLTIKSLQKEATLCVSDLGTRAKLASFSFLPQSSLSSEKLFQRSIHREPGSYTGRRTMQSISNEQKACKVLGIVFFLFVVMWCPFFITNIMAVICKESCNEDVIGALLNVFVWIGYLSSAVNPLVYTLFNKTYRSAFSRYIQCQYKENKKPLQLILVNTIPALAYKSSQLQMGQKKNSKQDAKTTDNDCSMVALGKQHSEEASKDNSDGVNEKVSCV
ASSAY OVERVIEW: Displacement of [3H]ketanserin human recombinant 5-HT2A receptor by Cheng-Prusoff equation analysis
OBSERVATION TYPE: Ki (pM)
One number for each entry, in pM.

Q) Look at this compound and give its reported Ki. CN1CCC(N(Cc2ccc(F)cc2)C(=O)NCc2ccc3c(c2)CC(C)(C)O3)CC1
A) 3

* * *

TESTED SYSTEM: 5-hydroxytryptamine receptor 2A (Homo sapiens, UniProt P28223)
ASSAY OVERVIEW: Inverse agonist activity at human 5-HT2A receptor assessed as […] in [35S]GTPgammaS binding by liquid scintillation spectrometry analysis
Format: functional
Hi there, I'd appreciate the recorded IC50 for every entry that follows.
Give bare numbers, in nM.

Field: example entries. Status: answers known.
CN1CCC(N(Cc2ccc(F)cc2)C(=O)NCc2ccc3c(c2)CC(C)(C)O3)CC1; 0.0631
CC1COc2ccc(CNC(=O)N(Cc3ccc(F)cc3)C3CCN(C)CC3)cc21 (stereo not drawn); 0.158

Turning to the following compound.
Q) Look at this compound and give its reported IC50. CC1Cc2cc(CNC(=O)N(Cc3ccc(F)cc3)C3CCN(C)CC3)ccc2O1 (stereo not drawn)
A) 0.251

* * *

TESTED SYSTEM: UniProt P28223
ASSAY OVERVIEW: Displacement of [3H]ketanserin from human 5-HT2A receptor incubated for 120 mins by microbeta liquid scintillation counter analysis
Hi there, I'd appreciate the recorded pKi for every entry that follows.
One number for each entry, as −log10 of the molar value.

CN1CCC(N(Cc2ccc(F)cc2)C(=O)NCc2ccc3c(c2)CC(C)(C)O3)CC1; 11.60
CC1COc2ccc(CNC(=O)N(Cc3ccc(F)cc3)C3CCN(C)CC3)cc21 (stereo not drawn); 9.80

Turning to the following compound.
Q) What reported pKi corresponds to CC1Cc2cc(CNC(=O)N(Cc3ccc(F)cc3)C3CCN(C)CC3)ccc2O1 (stereo not drawn) on UniProt P28223?
A) 10.50

* * *

TESTED SYSTEM: UniProt:P28223
ASSAY OVERVIEW: Inverse agonist activity at human prefrontal cortex 5-HT2A receptor assessed as […] in [35S]GTPgammaS binding by liquid scintillation spectrometry analysis
Assay type: functional, tissue-based
Hi there, I'd appreciate the recorded pIC50 for every entry that follows.
One number for each entry, as −log10 of the molar value.

Field: example entries. Status: answers known.
CC1Cc2cc(CNC(=O)N(Cc3ccc(F)cc3)C3CCN(C)CC3)ccc2O1 (stereo not drawn); 7.90
CN1CCC(N(Cc2ccc(F)cc2)C(=O)NCc2ccc3c(c2)CC(C)(C)O3)CC1; 7.90

Turning to the following compound.
Q) Look at this compound and give its reported pIC50. CC1COc2ccc(CNC(=O)N(Cc3ccc(F)cc3)C3CCN(C)CC3)cc21 (stereo not drawn)
A) 7.90

* * *

Hi there, I'd appreciate the recorded Ki for every entry that follows.
TESTED SYSTEM: 5-hydroxytryptamine receptor 2A (Homo sapiens)
ASSAY OVERVIEW: Displacement of [3H]ketanserin from postmortem human brain membrane homogenate 5-HT2A receptor incubated for 120 mins by microbeta liquid scintillation counter analysis
Format: cell membranes
Numbers only, in nM.

Field: example entries. Status: answers known.
CC1Cc2cc(CNC(=O)N(Cc3ccc(F)cc3)C3CCN(C)CC3)ccc2O1 (stereo not drawn); 0.501
CC1COc2ccc(CNC(=O)N(Cc3ccc(F)cc3)C3CCN(C)CC3)cc21 (stereo not drawn); 5.01

Q) What reported Ki corresponds to CN1CCC(N(Cc2ccc(F)cc2)C(=O)NCc2ccc3c(c2)CC(C)(C)O3)CC1 on 5-hydroxytryptamine receptor 2A (Homo sapiens)?
A) 0.0501
